Recorded values, source patent US11339193B2.

Tested on: TNFα-FL/Gaussia Luciferase
Assay: Dox induced TNFα-FL-Gluc assay
Format: cell-based
Details: I.A.; read-out: TNFa FL Gluc IC50
Numbered stars: 1 amine (or outer) side, 2 acyl side, 3 side chain; on linkers, the order of the positions; unused ones are H or OH. Square brackets hold non-standard residues; d marks the D form. Peptide text beside a SMILES is read from it. NMeAla(5-Cl-benzothien-3-yl) = CN[C@@H](Cc1csc2ccc(Cl)cc12)C(=O)O; Ala(1-cyclohexenyl) = N[C@@H](CC1=CCCCC1)C(=O)O; Butanoyl(2R-oxy,4-CN) = N#CCC[C@@H](O)C(=O)O; Abu(4,4,4-F3) = N[C@@H](CC(F)(F)F)C(=O)O; X12 = O=C([C@H](CC1=CCCC1)N[*:1])[*:2]; NMeL = CN[C@@H](CC(C)C)C(=O)O; NMeA = CN[C@@H](C)C(=O)O
RECORDED ENDPOINT: IC50

- MOLECULE: "CC(C)C[C@@H]1NC(=O)[C@H](Cc2csc3ccc(Cl)cc23)N(C)C(=O)[C@H](CC2=CCCCC2)NC(=O)[C@H](CC(C)C)N(C)C(=O)[C@H](CC2=CCCC2)NC(=O)[C@@H](CCC#N)OC(=O)[C@H](C)N(C)C1=O [C-85] (cyclo(L[NMeA][Butanoyl(2R-oxy,4-CN)][X12][NMeL][Ala(1-cyclohexenyl)][NMeAla(5-Cl-benzothien-3-yl)]))"
  RECORDED ENDPOINT: "IC50"
  TEST RESULT: "> 25 µM"

Attention now turns to another entry.
Give the reported value of IC50 for this record: CC(C)C[C@@H]1NC(=O)[C@H](Cc2csc3ccc(Cl)cc23)N(C)C(=O)[C@H](CC2=CCCCC2)NC(=O)[C@H](CC(C)C)N(C)C(=O)[C@H](CC(F)(F)F)NC(=O)[C@@H](CCC#N)OC(=O)[C@H](C)N(C)C1=O [C-97] (cyclo(L[NMeA][Butanoyl(2R-oxy,4-CN)][Abu(4,4,4-F3)][NMeL][Ala(1-cyclohexenyl)][NMeAla(5-Cl-benzothien-3-yl)]))
> 25 µM

---

System: HER3ss-Gluc
Test: HER3ss assay
Assay type: cell-based
Settings: HEK-293T T-rex cells, transient transfection, doxycycline, 24 h; read-out: HER3 ss IC50
Peptide text beside a SMILES is read from it.
RECORDED ENDPOINT: pIC50
Scale for pIC50: -log10 of concentration given in mol/L; no unit attached.

Note pIC50 for the molecule shown: CC(C)C[C@@H]1NC(=O)[C@H](Cc2cn(Cc3ccc(F)c(F)c3)c3ccccc23)N(C)C(=O)[C@H](CC(C)C)NC(=O)[C@H](CC(C)C)N(C)C(=O)[C@H](CC(C)C)NC(=O)[C@@H](CCC#N)OC(=O)[C@H](C)N(C)C1=O [C-28] (HELM PEPTIDE1{L.[meA].[N#CCC[C@@H](O[*:1])C(=O)[*:2]].L.[meL].L.[CN([C@@H](Cc1cn(Cc2ccc(F)c(F)c2)c2ccccc12)C(=O)[*:2])[*:1]]}$PEPTIDE1,PEPTIDE1,1:R1-7:R2$$$V2.0)
7.22

---

As shown below, each of these molecules has a reported IC50 value.
Tested on: HER3ss-Gluc
Test: HER3ss assay
Assay type: cell-based
Conditions: HEK-293T T-rex cells, transient transfection, doxycycline, 24 h; read-out: HER3 ss IC50
Numbered stars: 1 amine (or outer) side, 2 acyl side, 3 side chain; on linkers, the order of the positions; unused ones are H or OH. Square brackets hold non-standard residues; d marks the D form. Peptide text beside a SMILES is read from it. X19 = CN([C@@H](Cc1cn(Cc2ccc(Cl)cc2)c2ccccc12)C(=O)[*:2])[*:1]; Butanoyl(2R-oxy,4-CN) = N#CCC[C@@H](O)C(=O)O; Abu(4,4,4-F3) = N[C@@H](CC(F)(F)F)C(=O)O; NMeL = CN[C@@H](CC(C)C)C(=O)O; NMeA = CN[C@@H](C)C(=O)O
Your answer is read as nM, so omit the unit and give the number.

Solved cases below.
- MOLECULE: "CC(C)C[C@@H]1NC(=O)[C@H](Cc2cn(Cc3cccc(OC(F)F)c3)c3ccccc23)N(C)C(=O)[C@H](CC(C)C)NC(=O)[C@H](CC(C)C)N(C)C(=O)[C@H](CC(C)C)NC(=O)[C@@H](CCC#N)OC(=O)[C@H](C)N(C)C1=O [C-76] (HELM PEPTIDE1{L.[meA].[N#CCC[C@@H](O[*:1])C(=O)[*:2]].L.[meL].L.[CN([C@@H](Cc1cn(Cc2cccc(OC(F)F)c2)c2ccccc12)C(=O)[*:2])[*:1]]}$PEPTIDE1,PEPTIDE1,1:R1-7:R2$$$V2.0)"
  SYSTEM NAME: "HER3ss-Gluc"
  IC50 / nM: 245
- MOLECULE: "CC(C)C[C@@H]1NC(=O)[C@H](Cc2cn(Cc3ccc(Cl)cc3)c3ccccc23)N(C)C(=O)[C@H](CC(F)(F)F)NC(=O)[C@H](CC(C)C)N(C)C(=O)[C@H](CC(F)(F)F)NC(=O)[C@@H](CCC#N)OC(=O)[C@H](C)N(C)C1=O [C-84] (cyclo(L[NMeA][Butanoyl(2R-oxy,4-CN)][Abu(4,4,4-F3)][NMeL][Abu(4,4,4-F3)][X19]))"
  SYSTEM NAME: "HER3ss-Gluc"
  IC50 / nM: 72

Let us move to another entry and its IC50.
State, in one line, measured IC50 of COc1cccc(Cn2cc(C[C@H]3C(=O)N[C@@H](CC(C)C)C(=O)N(C)[C@@H](C)C(=O)O[C@H](CCC#N)C(=O)N[C@@H](CC(C)C)C(=O)N(C)[C@@H](CC(C)C)C(=O)N[C@@H](CC(C)C)C(=O)N3C)c3ccccc32)c1 [C-13] (HELM PEPTIDE1{L.[meA].[N#CCC[C@@H](O[*:1])C(=O)[*:2]].L.[meL].L.[COc1cccc(Cn2cc(C[C@@H](C(=O)[*:2])N(C)[*:1])c3ccccc32)c1]}$PEPTIDE1,PEPTIDE1,1:R1-7:R2$$$V2.0)
69

---

Test system: HER3ss-Gluc
Assay: HER3ss assay
Type: cell-based
Details: HEK-293T T-rex cells, transient transfection, doxycycline, 24 h; read-out: HER3 ss IC50
Square brackets hold non-standard residues; d marks the D form. Peptide text beside a SMILES is read from it. NMeTrp(1-(4-Br-benzyl)) = CN[C@@H](Cc1cn(Cc2ccc(Br)cc2)c2ccccc12)C(=O)O; NMeAla(5-Cl-benzothien-3-yl) = CN[C@@H](Cc1csc2ccc(Cl)cc12)C(=O)O; Ala(1-cyclohexenyl) = N[C@@H](CC1=CCCCC1)C(=O)O; Butanoyl(2R-oxy,4-CN) = N#CCC[C@@H](O)C(=O)O; tBuAla = CC(C)(C)C[C@H](N)C(=O)O; NMeL = CN[C@@H](CC(C)C)C(=O)O; NMeA = CN[C@@H](C)C(=O)O
The following compounds are listed with their measured IC50 values.
Output spec: scalar in nM, unitless text.

- COMPOUND: "CC(C)C[C@@H]1NC(=O)[C@H](Cc2csc3ccc(Cl)cc23)N(C)C(=O)[C@H](CC(C)C)NC(=O)[C@H](CC(C)C)N(C)C(=O)[C@H](CC2=CCCCC2)NC(=O)[C@@H](CCC#N)OC(=O)[C@H](C)N(C)C1=O [C-99] (cyclo(L[NMeA][Butanoyl(2R-oxy,4-CN)][Ala(1-cyclohexenyl)][NMeL]L[NMeAla(5-Cl-benzothien-3-yl)]))"
  SYSTEM NAME: "HER3ss-Gluc"
  TEST RESULT: 30

Give a short answer stating reported IC50 for CC(C)C[C@@H]1NC(=O)[C@H](Cc2cn(Cc3cncc(F)c3)c3ccccc23)N(C)C(=O)[C@H](CC(C)C)NC(=O)[C@H](CC(C)C)N(C)C(=O)[C@H](CC(C)C)NC(=O)[C@@H](CCC#N)OC(=O)[C@H](C)N(C)C1=O [C-35] (HELM PEPTIDE1{L.[meA].[N#CCC[C@@H](O[*:1])C(=O)[*:2]].L.[meL].L.[CN([C@@H](Cc1cn(Cc2cncc(F)c2)c2ccccc12)C(=O)[*:2])[*:1]]}$PEPTIDE1,PEPTIDE1,1:R1-7:R2$$$V2.0) .
126

Report IC50, nothing else, for this compound: CC(C)C[C@@H]1NC(=O)[C@H](Cc2cn(Cc3ccc(Br)cc3)c3ccccc23)N(C)C(=O)[C@H](CC(C)C)NC(=O)[C@H](CC(C)C)N(C)C(=O)[C@H](CC(C)(C)C)NC(=O)[C@@H](CCC#N)OC(=O)[C@H](C)N(C)C1=O [C-39] (cyclo(L[NMeA][Butanoyl(2R-oxy,4-CN)][tBuAla][NMeL]L[NMeTrp(1-(4-Br-benzyl))]))
330
